Species on record: Rattus norvegicus
Assay: DrugMatrix - Regimen: Daily Repeat
Format: toxicity, organism-based, Sprague-Dawley
Set-up: regimen Daily Repeat, gender Male, age 6-8 weeks
Conditions: in vivo, po, 0 mg/kg, 120 h, tissue Plasma, route oral GAVAGE, dose level Control, time 5 day, vehicle .5 % CMC
I'd appreciate it if you could supply URIC ACID values for the items below.
Give bare numbers, in mg/dL.

For each of the compounds below, note its URIC ACID.
1. CCn1cc(C(=O)O)c(=O)c2cc(F)c(N3CCNCC3)cc21
2. COc1nc(C)nc(Cl)c1N=C1NCCN1
3. CCCN1C[C@H](CSC)C[C@@H]2c3cccc4[nH]cc(c34)C[C@H]21 [PERGOLIDE]
4. ClC(Cl)Br
5. CCOP(=S)(OCC)Oc1nc(Cl)c(Cl)cc1Cl
6. Cc1ccc2cc3c(ccc4ccccc43)c3c2c1CC3

**A:**
1. 1.67
2. 1.68
3. 1.73
4. 1
5. 1.57
6. 1.04

* * *

I'd appreciate it if you could supply NEUTROPHIL values for the items below.
Species: Rattus norvegicus
Test: DrugMatrix - Regimen: Daily Repeat
Format: toxicity, organism-based, Sprague-Dawley
Set-up: regimen Daily Repeat, gender Male, age 6-8 weeks
Conditions: in vivo, po, 0 mg/kg, 120 h, tissue Blood, route oral GAVAGE, dose level Control, time 5 day, […]

Use the examples below as a reference point.
O=C(O)CCCc1ccc(N(CCCl)CCCl)cc1 [CHLORAMBUCIL] :: 16.5%
Cc1ccc(-c2cc(C(F)(F)F)nn2-c2ccc(S(N)(=O)=O)cc2)cc1 [CELECOXIB] :: 16.5%
CCC(C)n1ncn(-c2ccc(N3CCN(c4ccc(OCC5COC(Cn6cncn6)(c6ccc(Cl)cc6Cl)O5)cc4)CC3)cc2)c1=O (centres undefined) [ITRACONAZOLE] :: 16.5%
O=c1oc2ccccc2c(O)c1Cc1c(O)c2ccccc2oc1=O [DICUMAROL] :: 10.33%
CC(C)(Oc1ccc(Cl)cc1)C(=O)O [CLOFIBRIC ACID] :: 14.17%

For each of the molecules below, note its NEUTROPHIL.
1. OC(Cn1cncn1)(Cn1cncn1)c1ccc(F)cc1F [FLUCONAZOLE]
2. Cc1noc(NS(=O)(=O)c2ccc(N)cc2)c1C [SULFISOXAZOLE]
3. C[C@@H]1CN(c2c(F)c(N)c3c(=O)c(C(=O)O)cn(C4CC4)c3c2F)C[C@H](C)N1 [SPARFLOXACIN]
4. CCOC(=O)C1=C(COCCN)NC(C)=C(C(=O)OC)C1c1ccccc1Cl (centres undefined) [AMLODIPINE]

**A:**
1. 16.5%
2. 9.83%
3. 8.67%
4. 8.67%

* * *

Species: Rattus norvegicus
Experiment: DrugMatrix - Regimen: Daily Repeat
Type: toxicity, organism-based, Sprague-Dawley
Set-up: regimen Daily Repeat, gender Male, age 6-8 weeks
Conditions: in vivo, po, 0 mg/kg, 120 h, tissue Blood, route oral GAVAGE, dose level Control, time 5 day, vehicle .5 % CMC
measured attribute: HEMATOCRIT (%)
Give bare numbers, in %.

Use the examples below as a reference point.
N=C(N)NCCN1CCCCCCC1 [GUANETHIDINE] :: 37.08
CCOP(=S)(OCC)Oc1nc(Cl)c(Cl)cc1Cl [CHLORPYRIFOS] :: 44.17
CCCN1C[C@H](CSC)C[C@@H]2c3cccc4[nH]cc(c34)C[C@H]21 [PERGOLIDE] :: 35.92
CCn1cc(C(=O)O)c(=O)c2cc(F)c(N3CCNCC3)cc21 [NORFLOXACIN] :: 35.28
CC1CC(OC(=O)C(O)c2ccccc2)CC(C)(C)C1 (centres undefined) [CYCLANDELATE] :: 37.08

For each of the molecules below, note its HEMATOCRIT.
1. NC1=NC(=O)C(c2ccccc2)O1 (centres undefined) [PEMOLINE]
2. COc1nc(C)nc(Cl)c1N=C1NCCN1 [MOXONIDINE]
3. Cc1nc2n(c(=O)c1CCN1CCC(c3noc4cc(F)ccc34)CC1)CCCC2 [RISPERIDONE]
4. ClC(Br)Br [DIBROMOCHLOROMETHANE]

**A:**
[37.87, 36.1, 40.02, 33.17]

Cited source: ChEMBL document CHEMBL3885881
